Reported AC50, Growth hormone secretagogue receptor type 1 (Homo sapiens, UniProt Q92847).

In [3]: df
Out[3]:
                                   molecule                     target_or_test_system  observation_type  endpoint_result
0         [H]/N=C(/N)N/C(=N/[H])NCCc1ccccc1  Growth hormone secretagogue receptor type 1 (Homo sapiens, UniProt Q92847)              AC50          > 30 µM
1  COc1ccc(-c2noc(CC(=O)O)c2-c2ccc(OC)cc2)cc1  Growth hormone secretagogue receptor type 1 (Homo sapiens, UniProt Q92847)              AC50          > 30 µM
2  Cn1c(=O)cc(N2CCC[C@@H](N)C2)n(Cc2ccccc2C#N)c1=O  Growth hormone secretagogue receptor type 1 (Homo sapiens, UniProt Q92847)              AC50          > 30 µM
3  CC(=O)[C@@]1(O)CC[C@H]2[C@@H]3C=C(Cl)C4=CC(=O)[C@@H]5C[C@@H]5[C@]4(C)[C@H]3CC[C@@]21C  Growth hormone secretagogue receptor type 1 (Homo sapiens, UniProt Q92847)              AC50          > 10 µM
4  N[C@@H](CC(=O)N1CCn2c(nnc2C(F)(F)F)C1)Cc1cc(F)c(F)cc1F  Growth hormone secretagogue receptor type 1 (Homo sapiens, UniProt Q92847)              AC50          > 30 µM

Could you tell me which AC50 is on file for CC(=O)[C@]1(O)Cc2c(O)c3c(c(O)c2[C@@H](O[C@H]2C[C@H](N)[C@H](O)[C@H](C)O2)C1)C(=O)c1ccccc1C3=O ?
7.7 µM

Which AC50 reading was recorded for the molecule CC(C)(C)NCC(O)c1cc(O)cc(O)c1 (configuration not stated) ?
> 30 µM

Any idea what AC50 was measured for CCC[C@H](NC(=O)[C@@H]1[C@H]2CCC[C@H]2CN1C(=O)[C@@H](NC(=O)[C@@H](NC(=O)c1cnccn1)C1CCCCC1)C(C)(C)C)C(=O)C(=O)NC1CC1 ?
> 30 µM

Can you share its AC50? I mean this molecule: CC(N)C(O)c1ccccc1 (configuration not stated)
> 30 µM

Quick one: AC50 for O=C(O)CCNC(=O)c1ccccc1 ?
> 30 µM

AC50 lookup needed for CC1=C(C)C(=O)C(C(CCCCCC(=O)O)c2ccccc2)=C(C)C1=O (configuration not stated) , thanks.
> 30 µM

Give the measured AC50 of OC1(c2ccc(Cl)cc2)c2ccccc2C2=NCCN21 (configuration not stated) .
> 30 µM

* * *

target: Glucocorticoid receptor (Homo sapiens); also: assay procedure not described here
Sequence (P04150 whole entry): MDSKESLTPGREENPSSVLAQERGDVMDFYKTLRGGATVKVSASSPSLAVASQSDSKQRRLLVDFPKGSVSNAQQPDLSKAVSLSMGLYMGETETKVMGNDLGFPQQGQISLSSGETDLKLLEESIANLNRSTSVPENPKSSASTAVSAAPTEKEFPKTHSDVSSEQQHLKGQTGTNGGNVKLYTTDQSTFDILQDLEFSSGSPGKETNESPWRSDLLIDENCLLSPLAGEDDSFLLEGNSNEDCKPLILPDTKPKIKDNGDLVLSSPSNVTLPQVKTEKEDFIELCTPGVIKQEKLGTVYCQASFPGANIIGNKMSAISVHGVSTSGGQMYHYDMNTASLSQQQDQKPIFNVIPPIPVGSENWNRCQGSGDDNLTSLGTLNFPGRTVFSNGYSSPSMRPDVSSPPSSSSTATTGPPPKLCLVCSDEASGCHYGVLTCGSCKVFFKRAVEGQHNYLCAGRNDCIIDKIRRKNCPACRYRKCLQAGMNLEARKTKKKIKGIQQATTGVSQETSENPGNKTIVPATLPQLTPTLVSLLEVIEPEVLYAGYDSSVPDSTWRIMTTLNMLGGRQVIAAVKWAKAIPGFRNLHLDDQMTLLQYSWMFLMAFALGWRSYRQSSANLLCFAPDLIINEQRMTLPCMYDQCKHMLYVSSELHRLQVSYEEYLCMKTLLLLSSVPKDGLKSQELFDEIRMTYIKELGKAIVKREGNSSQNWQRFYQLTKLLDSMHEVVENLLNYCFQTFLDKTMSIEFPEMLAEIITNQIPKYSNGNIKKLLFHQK
Below, each entry is listed alongside its reported AC50.

Examples with answers:
compound	AC50
C[C@]12CC[C@@H]3c4ccc(O)cc4C[C@@H](CCCCCCCCC[S+]([O-])CCCC(F)(F)C(F)(F)F)[C@H]3[C@@H]1CC[C@@H]2O (stereo partly specified)	1.1 µM
C=C[C@@]1(C)CC(=O)[C@]2(O)[C@@]3(C)[C@@H](O)CCC(C)(C)[C@@H]3[C@H](O)[C@H](OC(C)=O)[C@@]2(C)O1	> 30 µM
CCN1CCCC1CNC(=O)c1cc(S(=O)(=O)CC)c(N)cc1OC (stereo unspecified) [AMISULPRIDE]	> 30 µM
O=C1CN=C(c2ccccc2)c2cc([N+](=O)[O-])ccc2N1	> 10 µM
CNC1=Nc2ccc(Cl)cc2C(c2ccccc2)=[N+]([O-])C1 [CHLORDIAZEPOXIDE]	> 30 µM

# input for lookup
Hello, I am looking for reported AC50 with Glucocorticoid receptor (Homo sapiens) for O=C1CCc2cc(OCCCCc3nnnn3C3CCCCC3)ccc2N1 . Could you help?
> 30 µM

* * *

AC50 values by entry
target: Glutamate receptor ionotropic, NMDA 1 (Rattus norvegicus); also: assay procedure not described here

Here are 2 compounds together with their reported answers.
                                mol  observation_type  endpoint_result
0         Nc1cc(-c2ccncc2)c[nH]c1=O              AC50          > 10 µM
1  Cc1noc(NS(=O)(=O)c2ccc(N)cc2)c1C              AC50          > 10 µM

Let's switch to this compound now.
Can you share its AC50? I mean this compound: Nc1ccc(S(=O)(=O)Nc2nccs2)cc1
> 10 µM

* * *

target: Vasopressin V1a receptor (Homo sapiens, UniProt P37288); also: assay procedure not described here
Sequence (P37288 whole entry): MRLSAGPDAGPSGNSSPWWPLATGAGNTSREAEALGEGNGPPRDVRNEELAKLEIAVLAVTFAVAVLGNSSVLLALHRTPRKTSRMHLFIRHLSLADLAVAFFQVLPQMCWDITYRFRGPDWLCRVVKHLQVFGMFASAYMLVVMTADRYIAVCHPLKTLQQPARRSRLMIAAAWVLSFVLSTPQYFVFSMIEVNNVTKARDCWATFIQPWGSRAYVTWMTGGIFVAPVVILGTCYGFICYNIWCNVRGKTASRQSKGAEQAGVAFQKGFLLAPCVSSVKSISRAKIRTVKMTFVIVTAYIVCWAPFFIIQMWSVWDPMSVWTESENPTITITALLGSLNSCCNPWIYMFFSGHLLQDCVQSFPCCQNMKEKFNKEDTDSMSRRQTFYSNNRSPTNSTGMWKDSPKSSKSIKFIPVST
Measured AC50, listed per entry.

                                   molecule  observation_type  endpoint_result
0  CC(C(=O)O)c1ccc2c(c1)[nH]c1ccc(Cl)cc12 (stereo unspecified) [CARPROFEN]              AC50          > 30 µM

Endpoint output: AC50 of COc1cc2c(cc1OC)C(CCc1ccc(Cl)cc1)N(C)CC2 (stereo unspecified) [METHOPHOLINE] . Value?
> 30 µM

Entry CC(=O)N[C@@H](CS)C(=O)O [ACETYLCYSTEINE] : reported AC50 = ?
> 30 µM

Which value of AC50 has been reported for CC(C(=O)O)c1ccc(-c2ccccc2)c(F)c1 (stereo unspecified) [FLURBIPROFEN] in the records?
> 10 µM

Could you tell me which AC50 is on file for CN1C[C@H](C(=O)N[C@]2(C)O[C@@]3(O)[C@@H]4CCCN4C(=O)[C@H](Cc4ccccc4)N3C2=O)C=C2c3cccc4[nH]cc(c34)C[C@H]21 [ERGOTAMINE] ?
> 30 µM

Fill in the blank: the reported AC50 of N[C@@H](CC(=O)N1CCn2c(nnc2C(F)(F)F)C1)Cc1cc(F)c(F)cc1F [SITAGLIPTIN] is ____.
> 30 µM

* * *

Target or system Neuronal acetylcholine receptor subunit alpha-4 (Homo sapiens, UniProt P43681); recorded quantity AC50. Also: assay procedure not described here.

Find AC50 (Neuronal acetylcholine receptor subunit alpha-4 (Homo sapiens, UniProt P43681)) for the entry COc1ccc2nc3cc(Cl)ccc3c(Nc3cc(CN4CCCC4)c(O)c(CN4CCCC4)c3)c2n1 [PYRONARIDINE]
26 µM

Enter reported AC50 observed with Neuronal acetylcholine receptor subunit alpha-4 (Homo sapiens, UniProt P43681) for CCC(C)C1(CC)C(=O)NC(=O)NC1=O (stereo not given) [BUTABARBITAL]
Sequence (P43681 whole entry): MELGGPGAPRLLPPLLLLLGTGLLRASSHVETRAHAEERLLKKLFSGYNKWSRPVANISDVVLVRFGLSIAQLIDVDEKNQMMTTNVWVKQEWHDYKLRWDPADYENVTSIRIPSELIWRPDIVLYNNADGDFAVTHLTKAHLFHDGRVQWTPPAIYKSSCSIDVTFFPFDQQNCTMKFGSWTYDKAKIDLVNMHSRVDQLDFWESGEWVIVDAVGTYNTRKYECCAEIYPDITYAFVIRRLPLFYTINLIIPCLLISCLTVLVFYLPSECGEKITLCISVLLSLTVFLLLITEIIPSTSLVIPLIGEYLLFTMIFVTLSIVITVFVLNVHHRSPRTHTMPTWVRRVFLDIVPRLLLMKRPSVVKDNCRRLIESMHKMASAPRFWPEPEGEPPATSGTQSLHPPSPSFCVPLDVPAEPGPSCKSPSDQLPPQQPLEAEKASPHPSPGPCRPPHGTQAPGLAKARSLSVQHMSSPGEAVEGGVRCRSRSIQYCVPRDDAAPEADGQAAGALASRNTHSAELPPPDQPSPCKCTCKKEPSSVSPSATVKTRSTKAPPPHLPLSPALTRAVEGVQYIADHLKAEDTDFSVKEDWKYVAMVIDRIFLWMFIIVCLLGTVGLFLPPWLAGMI
> 30 µM

So what AC50 did N[C@@H](CC(=O)N1CCn2c(nnc2C(F)(F)F)C1)Cc1cc(F)c(F)cc1F [SITAGLIPTIN] get with Neuronal acetylcholine receptor subunit alpha-4 (Homo sapiens, UniProt P43681)?
> 30 µM

Record C=C1/C(=C\C=C2/CCC[C@]3(C)[C@@H]([C@H](C)/C=C/[C@@H](O)C4CC4)CC[C@@H]23)C[C@@H](O)C[C@@H]1O [CALCIPOTRIENE] : what is its AC50 with Neuronal acetylcholine receptor subunit alpha-4 (Homo sapiens, UniProt P43681)?
> 30 µM

Under Neuronal acetylcholine receptor subunit alpha-4 (Homo sapiens, UniProt P43681): AC50 value of CCC[C@H](NC(=O)[C@@H]1[C@H]2CCC[C@H]2CN1C(=O)[C@@H](NC(=O)[C@@H](NC(=O)c1cnccn1)C1CCCCC1)C(C)(C)C)C(=O)C(=O)NC1CC1 ?
> 10 µM

Lab request: please report AC50 under test system Neuronal acetylcholine receptor subunit alpha-4 (Homo sapiens, UniProt P43681) for C#C[C@]1(OC(C)=O)CC[C@H]2[C@@H]3CCC4=C/C(=N/O)CC[C@@H]4[C@H]3CC[C@@]21CC [NORGESTIMATE]; also: assay procedure not described here
> 30 µM

# query: AC50 | item C[C@H](Cc1ccc(O)c(O)c1)[C@@H](C)Cc1ccc(O)c(O)c1 [MASOPROCOL] | system: Neuronal acetylcholine receptor subunit alpha-4 (Homo sapiens, UniProt P43681); also: assay procedure not described here
> 30 µM

For Neuronal acetylcholine receptor subunit alpha-4 (Homo sapiens, UniProt P43681), provide AC50 of C=CC[C@@H]1/C=C(\C)C[C@H](C)C[C@H](OC)[C@H]2O[C@@](O)(C(=O)C(=O)N3CCCC[C@H]3C(=O)O[C@H](/C(C)=C/[C@@H]3CC[C@@H](O)[C@H](OC)C3)[C@H](C)[C@@H](O)CC1=O)[C@H](C)C[C@@H]2OC [TACROLIMUS ANHYDROUS] please.
> 30 µM

Lab note: need AC50 for CC1(C)S[C@@H]2[C@H](NC(=O)[C@H](N)c3ccccc3)C(=O)N2[C@H]1C(=O)OCOC(=O)[C@@H]1N2C(=O)C[C@H]2S(=O)(=O)C1(C)C [SULTAMICILLIN] on Neuronal acetylcholine receptor subunit alpha-4 (Homo sapiens, UniProt P43681), anyone have it?
> 30 µM

Please tell me: AC50 of COc1cc2nc(N3CCN(C(=O)C4CCCO4)CC3)nc(N)c2cc1OC (stereo not given) [TERAZOSIN] , system Neuronal acetylcholine receptor subunit alpha-4 (Homo sapiens, UniProt P43681)?; also: assay procedure not described here
> 10 µM

FYI, the data here is from ChEMBL document CHEMBL5291721.
